target: BACE1 in primary mouse cortical neurons (mouse, UniProt P56818 46-501); experiment: cell-based or functional assay
Sequence (P56818 46-501): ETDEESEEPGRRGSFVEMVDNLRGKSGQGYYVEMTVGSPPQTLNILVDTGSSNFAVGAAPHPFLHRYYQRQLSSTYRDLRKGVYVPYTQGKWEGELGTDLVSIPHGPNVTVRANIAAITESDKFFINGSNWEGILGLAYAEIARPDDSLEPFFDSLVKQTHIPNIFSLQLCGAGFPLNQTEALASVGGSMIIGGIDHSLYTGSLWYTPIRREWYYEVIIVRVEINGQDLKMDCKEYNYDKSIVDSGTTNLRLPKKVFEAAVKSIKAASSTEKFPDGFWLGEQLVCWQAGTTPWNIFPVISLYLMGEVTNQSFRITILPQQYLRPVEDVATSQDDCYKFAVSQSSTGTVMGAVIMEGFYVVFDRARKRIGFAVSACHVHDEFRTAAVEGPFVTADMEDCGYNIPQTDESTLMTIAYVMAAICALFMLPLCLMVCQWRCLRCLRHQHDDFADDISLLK

| BINDER | maximal % inhibition of Abeta x-40, % |
| --- | --- |
| 6275 (antibody, V domains shown, anti-BACE1 IgG) VH: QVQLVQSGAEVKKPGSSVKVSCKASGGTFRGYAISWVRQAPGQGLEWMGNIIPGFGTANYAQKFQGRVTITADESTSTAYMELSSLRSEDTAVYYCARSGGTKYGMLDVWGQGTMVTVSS VL: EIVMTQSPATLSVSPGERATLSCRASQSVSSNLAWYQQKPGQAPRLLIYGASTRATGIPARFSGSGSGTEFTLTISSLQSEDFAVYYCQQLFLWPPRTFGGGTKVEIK | 71 |
| 5990 (antibody, V domains shown, anti-BACE1 IgG) VH: QLQLQESGPGLVKPSETLSLTCTVSGGSISWSSYYWSWIRQPPGKGLEWIGSIYRSGRTYYNPSLKSRVTISVDTSKNQFSLKLSSVTAADTAVYYCARVGHGINYFDLWGRGTLVTVSS VL: EIVLTQSPATLSLSPGERATLSCRASRSVNSYLAWYQQKPGQAPRLLIYDASKRATGIPARFSGSGSGTDFTLTISSLEPEDFAVYYCQQVYTWPPRTFGGGTKVEIK | 61 |
| 6273 (antibody, V domains shown, anti-BACE1 IgG) VH: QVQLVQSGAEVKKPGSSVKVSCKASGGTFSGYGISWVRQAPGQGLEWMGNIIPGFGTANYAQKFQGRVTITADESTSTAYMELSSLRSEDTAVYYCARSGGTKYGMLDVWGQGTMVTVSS VL: EIVMTQSPATLSVSPGERATLSCRASQSVSSNIAWYQQKPGQAPRLLIYGASTRATGIPARFSGSGSGTEFTLTISSLQSEDFAVYYCQQLLLWPPRTFGGGTKVEIK | 82 |

Origin of measurements: patent US20180057604A1
